Attribution: patent US20110262445A1

Target of assay: T1, human IL-23 (human, UniProt P29460 23-328; Q9NPF7 20-189)
T1 construct: Recombinant (Ebioscience); HIS-tagged in flow cytometry, biotinylated in some assays; also called hIL-23; rhIL-23
T1 sequence 1: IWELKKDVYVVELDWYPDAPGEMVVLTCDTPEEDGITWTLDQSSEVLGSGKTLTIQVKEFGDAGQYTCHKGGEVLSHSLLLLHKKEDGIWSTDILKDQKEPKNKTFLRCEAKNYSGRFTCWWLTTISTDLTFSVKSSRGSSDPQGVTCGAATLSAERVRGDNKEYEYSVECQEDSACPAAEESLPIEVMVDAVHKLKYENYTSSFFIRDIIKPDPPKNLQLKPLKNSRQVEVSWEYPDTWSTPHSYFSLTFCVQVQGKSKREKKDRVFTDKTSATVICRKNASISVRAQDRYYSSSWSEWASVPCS
T1 sequence 2: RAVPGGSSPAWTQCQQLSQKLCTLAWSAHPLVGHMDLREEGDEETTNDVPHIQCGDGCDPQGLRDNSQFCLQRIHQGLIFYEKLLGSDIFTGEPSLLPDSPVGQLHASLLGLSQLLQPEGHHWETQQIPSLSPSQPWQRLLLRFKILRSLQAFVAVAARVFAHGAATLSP
Protocol text: ELISA, coated IL-23

| Binder | binding result |
| --- | --- |
| Antibody 197 (antibody, human IgG1, kappa, V domains shown) VH: QVQLVQSGAEVKKPGASVKVSCKASGYTFTDYYLHWVRQAPGRGLEWMGWIDPENGDTEYAPKFQGRVTMTTDTSTSTAYMELRSLRSDDTAVYYCAANKELRYFDVWGQGTMVTVSS VL: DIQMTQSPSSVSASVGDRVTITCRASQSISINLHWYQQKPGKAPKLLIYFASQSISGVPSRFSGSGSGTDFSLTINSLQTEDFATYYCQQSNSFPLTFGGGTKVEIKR | binds |
| Antibody 204 (antibody, human IgG1, kappa, V domains shown, not the murine PMA204) VH: QVQLVQSGAEVEKPGASVKVSCKASGYTFTDYYLHWVRQAPGQGLEWMGWIDPENGDTEYAPKFQGGVTMTTDTSTSTAYMELRSLRSDDTAVYYCAANKELRYFDVWGQGTMVTVSS VL: EIVMTQSPATLSVSPGERATLSCRASQSISINLHWYQQKPGQAPRLLIYFASQSISGIPARFSGSGSGTEFTLTISSLQSEDFAVYYCQQSNSFPLTFGGGTKVEIKR | binds |
| Antibody 196 (antibody, human IgG1, kappa, V domains shown) VH: QVQLVQSGAEVEKPGASVKVSCKASGYTFTDYYLHWVRQAPGQGLEWMGWIDPENGDTEYAPKFQGGVTMTTDTSTSTAYMELRSLRSDDTAVYYCAANKELRYFDVWGQGTMVTVSS VL: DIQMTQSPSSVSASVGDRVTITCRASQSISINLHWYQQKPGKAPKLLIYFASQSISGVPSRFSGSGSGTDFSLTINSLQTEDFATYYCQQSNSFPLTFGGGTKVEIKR | binds |
